System: Jurkat cells
assay explanation: (r) Cell cytotoxicity assay
Format: cell-based, human
applied conditions: 20 μg/mL, 24 hours
Procedure: 1×10^5 Jurkat cells (immortalised human T lymphocytes) are added to the appropriate number of wells of a 96 well plate in 100 μL of media (RPMI supplemented with 10% foetal bovine serum). […] After 15 minutes, cells are analysed by flow cytometry (BD accuri) using the FL3 window. The % viability is calculated as the % of cells that are PI negative in the test wells normalised to the DMSO control.

{"columns": ["mol smiles", "measured target", "% Viability at 20 μg/mL / %"],
 "data": [
  ["COc1cc(Nc2cc(Oc3ccc(NC(=O)Nc4cc(C(C)(C)C)cc(NS(C)(=O)=O)c4OC)c4ccccc34)ccn2)ccc1S(=O)(=O)N(C)CCN1CCN(C)CC1", "Jurkat cells", 0.2],
  ["COc1cc(Nc2cc(Oc3ccc(NC(=O)Nc4cc(C(C)(C)C)cc(C(=O)NCCO)c4OC)c4ccccc34)ccn2)ccc1C(=O)NCCN1CC[S+]([O-])CC1", "Jurkat cells", 2.5],
  ["COc1cc(Nc2cc(Oc3ccc(NC(=O)Nc4cc(C(C)(C)C)cc(NS(C)(=O)=O)c4OC)c4ccccc34)ccn2)ccc1C(=O)NCCC(=O)N1C[C@H](O)[C@@H](O)[C@H](O)[C@H]1CO", "Jurkat cells", 96.8],
  ["COc1cc(Nc2cc(Oc3ccc(NC(=O)Nc4cc(C(C)(C)C)cc(NS(C)(=O)=O)c4OC)c4ccccc34)ccn2)ccc1C(=O)NCCCCCN(C)C", "Jurkat cells", 0.1],
  ["COc1cc(Nc2cc(Oc3ccc(NC(=O)Nc4cc(C(C)(C)C)cc(NS(C)(=O)=O)c4OC)c4ccccc34)ccn2)ccc1C(=O)N(C)CCN1CCOCC1", "Jurkat cells", 93.9]
]}

----------
assay explanation: Pharmacokinetics and total colon distribution after oral administration
Assay type: in vivo
applied conditions: male, C57BL/6, mouse, total colon; mice, oral 5 mg/kg, dosed compound measured, 24 h; read-out: total colon level

{"columns": ["compound", "concentration at 24 h / ng/g"],
 "data": [
  ["COc1cc(Nc2cc(Oc3ccc(NC(=O)Nc4cc(C(C)(C)C)cc(NS(C)(=O)=O)c4OC)c4ccccc34)ccn2)ccc1C(=O)NCCOCCOCCOP(=O)(O)O [Example 19]", 0]
]}

----------
Tested on: Jurkat cells
assay explanation: (r) Cell cytotoxicity assay
Type: cell-based, human
applied conditions: 20 μg/mL, 24 hours

{"columns": ["compound", "% Viability at 20 μg/mL, %"],
 "data": [
  ["COc1cc(Nc2cc(Oc3ccc(NC(=O)Nc4cc(C(C)(C)C)cc(NS(C)(=O)=O)c4OC)c4ccccc34)ccn2)ccc1C(=O)NC[C@@H]1O[C@H](CO)[C@@H](O)[C@H](O)[C@H]1O [17(co)]", 92.2],
  ["COc1cc(Nc2cc(Oc3ccc(NC(=O)Nc4cc(C(C)(C)C)cc(NS(C)(=O)=O)c4OC)c4ccccc34)ccn2)ccc1C(=O)NCCOCCOCCO [Example 16]", 19.1],
  ["COCCOCCOCCS(=O)(=O)c1ccc(Nc2cc(Oc3ccc(NC(=O)Nc4cc(C(C)(C)C)cc(NS(C)(=O)=O)c4OC)c4ccccc34)ccn2)cc1OC [Example 12]", 82.9],
  ["COc1cc(Nc2cc(Oc3ccc(NC(=O)Nc4cc(C(C)(C)C)cc(NS(C)(=O)=O)c4OC)c4ccccc34)ccn2)ccc1C(=O)NC(C)CN1CCN(C)CC1 (centres unmarked) [17(bl)]", 0.5],
  ["COc1cc(Nc2cc(Oc3ccc(NC(=O)Nc4cc(C(C)(C)C)cc(NS(C)(=O)=O)c4OC)c4ccccc34)ccn2)ccc1C(=O)NCC(CO)(CO)CO [Example 38]", 6.0],
  ["COc1c(NC(=O)Nc2ccc(Oc3ccnc(Nc4ccc(C(=O)NCCN5CCOCC5)c(N(C)C)c4)c3)c3ccccc23)cc(C(C)(C)C)cc1NS(C)(=O)=O [Example 21]", 77.1],
  ["COc1cc(Nc2cc(Oc3ccc(NC(=O)Nc4cc(C(C)(C)C)cc(NS(C)(=O)=O)c4OC)c4ccccc34)ccn2)cc(OC)c1C(=O)NCCN1CCN(C)CC1 [Example 22]", 42.9],
  ["COc1cc(Nc2nccc(Oc3ccc(NC(=O)Nc4cc(C(C)(C)C)cc(NS(C)(=O)=O)c4OC)c4ccccc34)n2)ccc1C(=O)NCCCN1CCOCC1 [17(ao)]", 1.6],
  ["COc1cc(Nc2nccc(Oc3ccc(NC(=O)Nc4cc(C(C)(C)C)cc(NS(C)(=O)=O)c4OC)c4ccccc34)n2)ccc1C(=O)NCCOCCOCCO [17(by)]", 1.6],
  ["COc1cc(Nc2cc(Oc3ccc(NC(=O)Nc4cc(C(C)(C)C)cc(NS(C)(=O)=O)c4OC)c4ccccc34)ccn2)ccc1CP(C)(=O)O [Example 70]", 63.8],
  ["COc1cc(Nc2nccc(Oc3ccc(NC(=O)Nc4cc(C(C)(C)C)cc(NS(C)(=O)=O)c4OC)c4ccccc34)n2)ccc1S(N)(=O)=O [Example 28]", 18.9]
]}

----------
assay explanation: Pharmacokinetics and total colon distribution after oral administration
Assay type: in vivo
applied conditions: male, C57BL/6, mouse, blood; mice, oral 5 mg/kg, dosed compound measured, 4 h; read-out: Mean blood concentration
measured endpoint: concentration at 4 h (ng/mL)

{"columns": ["molecule", "numeric value"],
 "data": [
  ["COc1cc(Nc2cc(Oc3ccc(NC(=O)Nc4cc(C(C)(C)C)cc(NS(C)(=O)=O)c4OC)c4ccccc34)ccn2)ccc1C(=O)NCCOCCOCCOP(=O)(O)O [Example 19]", 0]
]}

----------
System: Jurkat cells
assay explanation: (r) Cell cytotoxicity assay
Format: cell-based, human
applied conditions: 5 μg/mL, 24 hours
measured endpoint: % Viability at 5 μg/mL (%)

{"columns": ["compound", "measured target", "numeric value"],
 "data": [
  ["C#Cc1cc(Nc2cc(Oc3ccc(NC(=O)Nc4cc(C(C)(C)C)cc(NS(C)(=O)=O)c4OC)c4ccccc34)ccn2)ccc1C(=O)NCCN1CCOCC1 [Example 15]", "Jurkat cells", 75.0],
  ["COc1cc(Nc2cc(Oc3ccc(NC(=O)Nc4cc(NS(C)(=O)=O)cc(C(C)(C)C)c4)c4ccccc34)ccn2)ccc1C(=O)NCCCN1CCN(C)CC1 [17(bp)]", "Jurkat cells", 41.0],
  ["COc1cc(Nc2cc(Oc3ccc(NC(=O)Nc4cc(C(C)(C)C)cc(NS(C)(=O)=O)c4OC)c4ccccc34)ccn2)ccc1C(=O)NC(CO)(CO)CO [17(cm)]", "Jurkat cells", 77.0],
  ["COc1cc(Nc2nccc(Oc3ccc(NC(=O)Nc4cc(C(C)(C)C)cc(NS(C)(=O)=O)c4OC)c4ccccc34)n2)ccc1S(N)(=O)=O [Example 28]", "Jurkat cells", 41.1],
  ["COc1cc(Nc2cc(Oc3ccc(NC(=O)Nc4cc(C(C)(C)C)cc(NS(C)(=O)=O)c4OC)c4ccccc34)ccn2)ccc1C(=O)NCCCN1CCOCC1 [17(b)]", "Jurkat cells", 93.8],
  ["COc1cc(Nc2cc(Oc3ccc(NC(=O)Nc4cc(C(C)(C)C)cc(NS(C)(=O)=O)c4OC)c4ccccc34)ccn2)ccc1C(=O)N(C)CCN1CCN(C)CC1 [17(bh)]", "Jurkat cells", 67.8]
]}

----------
Tested on: Jurkat cells
assay explanation: (r) Cell cytotoxicity assay
Type: cell-based, human
applied conditions: 1 μg/mL, 24 hours

{"columns": ["compound", "units", "% Viability at 1 μg/mL"],
 "data": [
  ["COc1cc(Nc2cc(Oc3ccc(NC(=O)Nc4cc(C(C)(C)C)cc(NS(C)(=O)=O)c4OC)c4ccccc34)ccn2)ccc1C(=O)NC[C@H](O)[C@H](O)[C@H](O)CO [Example 42]", "%", 96.6],
  ["COc1cc(Nc2cc(Oc3ccc(NC(=O)Nc4cc(C(C)(C)C)cc(NS(C)(=O)=O)c4OC)c4ccccc34)ccn2)ccc1S(=O)(=O)CCCN1CCOCC1 [Example 20]", "%", 104.0],
  ["COc1cc(Nc2cc(Oc3ccc(NC(=O)Nc4cc(C(C)(C)C)cc(NS(C)(=O)=O)c4OC)c4ccccc34)ccn2)ccc1C(=O)NCC(CO)(CO)CO [Example 38]", "%", 90.0]
]}

----------
assay explanation: Pharmacokinetics and total colon distribution after oral administration
Assay type: in vivo
applied conditions: male, C57BL/6, mouse, total colon; mice, oral 5 mg/kg, dosed compound measured, 4 h; read-out: total colon level

{"columns": ["mol smiles", "concentration at 4 h"],
 "data": [
  ["COc1cc(Nc2cc(Oc3ccc(NC(=O)Nc4cc(C(C)(C)C)cc(NS(C)(=O)=O)c4OC)c4ccccc34)ccn2)ccc1C(=O)NCCOCCOCCOP(=O)(O)O", "0 ng/g"]
]}

----------
System: UniProt:Q16539 | Read-out: pIC50
Sequence (Q16539 whole entry): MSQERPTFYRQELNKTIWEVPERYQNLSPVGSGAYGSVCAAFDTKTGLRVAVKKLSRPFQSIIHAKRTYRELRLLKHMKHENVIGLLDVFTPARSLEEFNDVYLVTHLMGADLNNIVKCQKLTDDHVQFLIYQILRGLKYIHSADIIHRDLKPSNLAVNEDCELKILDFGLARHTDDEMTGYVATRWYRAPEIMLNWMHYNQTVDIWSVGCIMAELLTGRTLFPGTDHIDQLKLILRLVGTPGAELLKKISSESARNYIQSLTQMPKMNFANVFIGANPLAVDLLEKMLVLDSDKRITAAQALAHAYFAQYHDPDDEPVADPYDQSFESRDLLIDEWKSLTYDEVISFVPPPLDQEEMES
pIC50: −log10 of the molar value.

{"columns": ["compound", "measured target", "pIC50"],
 "data": [
  ["COc1cc(Nc2cc(Oc3ccc(NC(=O)Nc4cc(C(C)(C)C)cc(NS(C)(=O)=O)c4OC)c4ccccc34)ccn2)cc(OC)c1C(=O)NCCN1CCN(C)CC1", "UniProt:Q16539", 8.22],
  ["COc1cc(Nc2cc(Oc3ccc(NC(=O)Nc4cc(C(C)(C)C)cc(NS(C)(=O)=O)c4OC)c4ccccc34)ccn2)ccc1C(=O)NCCOCCOCCO", "UniProt:Q16539", 7.47],
  ["COc1cc(Nc2cc(Oc3ccc(NC(=O)Nc4cc(C(C)(C)C)cc(NS(C)(=O)=O)c4OC)c4ccccc34)ccn2)ccc1C(=O)NCCN1CCS(=O)(=O)CC1 [17(r)]", "UniProt:Q16539", 6.92],
  ["COc1cc(Nc2cc(Oc3ccc(NC(=O)Nc4cc(C(C)(C)C)cc(NS(C)(=O)=O)c4OC)c4ccccc34)ccn2)ccc1C(=O)NCCN1CC[S+]([O-])CC1", "UniProt:Q16539", 7.23],
  ["COc1cc(Nc2cc(Oc3ccc(NC(=O)Nc4cc(C(C)(C)C)cc(NS(C)(=O)=O)c4OC)c4ccccc34)ccn2)ccc1C(=O)NC1CCN(C)CC1", "UniProt:Q16539", 7.68]
]}
